# target-desc: T1, human EGFRvIII expressed on cells (human, UniProt P00533 298-1210)
# T1 construct: the F98-npEGFRvIII line was obtained from ATCC and its construct is not described; also called F98-npEGFRvIII; F98-EGFRvIII
# protocol-text: flow cytometry, F98-npEGFRvIII cells
metric: % positive (%)
One number for each entry, in %.

Please review the following examples before continuing.
binder: 14C11 (antibody, V domains shown, Hybridoma supernatant (AlivaMab mouse); captured/detected via mouse Fc) VH: QVTLKESGPVLVKPTETLTLTCTVSGFSLNNARMGVSWIRQPPGKALEWFAHIFSTDEKSFRTSLRSRLTLSKDTSKSQVVLTMTNMDPVDTATYYCARDSSNYEGYFDYWGQGILVTVSS VL: EIVMTQSPATLSVSPGERATLSCRASQSVSNNLAWYQQKPGQAPRLLIYGASTRATGVPARFSGSDSGTEFSLTISSLQSEDFAVYFCQQYKDWPFTFGPGTKVEIK
scale-unit: %
recorded-measurement: 98.2

binder: 29D5 (antibody, V domains shown, Hybridoma supernatant (AlivaMab mouse); captured/detected via mouse Fc) VH: QVTLKESGPVLVKPTETLTLTCTVSGFSLSNPRMGVSWLRQPPGKALEWFAHIFSTDEKSYSPSLRGRLTVSKDTSKSQVVLTLTNMDPVDTATYYCARDSSNYEGYFDYWGQGTLVTVSS VL: KIVMTQSPATLSVSPGERATLSCRANQIVSSNLAWYQQKPGQAPRLLVFGTSTRATGIPIRFSGSGSGTEFTLTVSSLQSEDFAVYVCQQYNDWPFTFGPGTKVDIK
scale-unit: %
recorded-measurement: 97.9

binder: 11F10 (antibody, V domains shown, Hybridoma supernatant (AlivaMab mouse); captured/detected via mouse Fc) VH: QVTLKESGPVLVKPIETLTLTCTVCGFSLSNPRMGVSWIRQPPGKALEWLGHIFSSDEKSYRLFLRSRLSISKDTSKSQVVLTMTNMDPVDTATYYCARDSSDYEGYFDYWGQGTLVTVSS VL: EIVMTQSPATLSVSPGERTTLSCRASQSVGSNLAWYQQKPGQAPRLLIYGASTRASGVPARFSGSGSGTEFTLTISSLQSEDFAVYSCQEYNNWPFTFGQGTKVEIK
scale-unit: %
recorded-measurement: 98

binder: 19A9 (antibody, V domains shown, Hybridoma supernatant (AlivaMab mouse); captured/detected via mouse Fc) VH: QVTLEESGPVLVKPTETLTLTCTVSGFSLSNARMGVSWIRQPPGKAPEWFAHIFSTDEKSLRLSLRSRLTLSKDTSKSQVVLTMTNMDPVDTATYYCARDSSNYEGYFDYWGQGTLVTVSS VL: EVVMTQSPATLSVSPGERATLSCRASQSVNRNLAWYQQKPGQAPRLLIFGTSTRATGIPARFSGSGSGTEFTLTIDSLQSEHSGLYYCQQYNDWPFTFGPGTKVDIK
scale-unit: %
recorded-measurement: 98.1

Now let's try a different one.
Lookup: Quick one: % positive for 21E11 (antibody, V domains shown, Hybridoma supernatant (AlivaMab mouse); captured/detected via mouse Fc) VH: QVTLKESGPVLVKPTETLTLTCTVSGFSLSNVRMGVSWIRQPPGKALEWFAHIFSSDEKSIRRSLRSRLTLSKDTSKSQVVLTMTNMDPVDTATYYCARDSSNYEGYFDFWGQGTLVTVSS VL: DMVVTQSPATLSVSPGERATLSCRASQSVGSDLAWYQQPPGQSPRLLIYGASTRATGVPARFSGSGSGTDFTLTITSLESEDFAVYYCQQYNDWPFTFGPGTKVDIK ?
Found: 98.5
